Test system: hEPO mRNA
Experiment: hEPO expression and pharmacokinetic parameters in non-human primates
Assay type: in vivo, Cynomolgus monkeys
Settings: hEPO, 0.01 mpk i.v. infusion, non-human primates
Protocol: The tolerability and efficacy of nanoparticle compositions to non-human primates was also investigated using a sample formulation including Compound 18. […] Expression of hEPO was measured prior to dosing and at 2, 6, 24, 48, and 96 hours post-treatment (Table 26). […] NHP studies: Nonhuman primate studies were conducted using naïve cynomolgus monkeys (cynos), 2-4 years old, weighing 2-6 kg. […] Sample sizes were determined by the resource equation method. […]
Give AUC Lipid/MC3 Ratio for every item shown.
Numbers only.

Solved cases below.
| compound | assay target | AUC Lipid/MC3 Ratio |
| --- | --- | --- |
| CCCCCCCCCOC(=O)CCCCCCCN(CCO)CCCCCCCC(=O)OC(CCCCCCCC)CCCCCCCC | hEPO mRNA | 6.0 |
| CCCCC/C=C\C/C=C\CCCCCCCCC(CCCCCCCC/C=C\C/C=C\CCCCC)OC(=O)CCCN(C)C [MC3, DLin-MC3-DMA, reference compound] | hEPO mRNA | 1.0 |
| CCCCCCCCCOC(=O)CCCN(CCO)CCCCCCCC(=O)OC(CCCCCCCC)CCCCCCCC | hEPO mRNA | 1.3 |
| CCCCCCCCC(C)OC(=O)CCCCCCCN(CCO)CCCCCCCC(=O)OC(CCCCCCCC)CCCCCCCC (centres unmarked) | hEPO mRNA | 0.9 |

Report AUC Lipid/MC3 Ratio from hEPO mRNA testing of "CCCCCCCCCCCOC(=O)CCCCCN(CCO)CCCCCCCC(=O)OC(CCCCCCCC)CCCCCCCC"
3.3

====

assay: Particle size and polydispersity index of nanoparticle compositions (Zetasizer Nano ZS); type: physicochemical; settings: Table 1A
Field: PDI. Provide a value for each of the compounds that follow.
Answers are plain numbers.

| compound | PDI |
| --- | --- |
| CCCCCCCCCOC(=O)CCCCCCCN(CCO)CCCCCCCC(=O)OC1CCC(C2CCCCC2)CC1 (stereo not shown) [Compound 80] | 0.19 |
| CCCCCCCCC(CCCCCCCC)OC(=O)CCCCCCCN(CCO)CCCCCCCC(=O)OCC1CC1CCCCCC (stereo not shown) [Compound 28] | 0.20 |
| CCCCCCCCC(CCCCCCCC)OC(=O)CCCCCCCN(C)CCCCCCCC(=O)OC(CCCCCCCC)CCCCCCCC [Compound 124] | 0.1 |

Check the records and state PDI for CCCCCCCCCOC(=O)CCCCCCCN(CCCCCCCC(=O)OC(CCCCCCCC)CCCCCCCC)C[C@H](C)O [Compound 12]
0.17

====

test: Particle size and polydispersity index of nanoparticle compositions (Zetasizer Nano ZS); assay type: physicochemical; conditions: Table 1A; lipid:DSPC:cholesterol:PEG-DMG 50:10:38.5:1.5 mol %
Label Yes when Size (nm) is strictly below 90 nm; at or above that, label No.

Past entries and their recorded results:
| compound | label value |
| --- | --- |
| CCCCCCCCCOC(=O)CCCCCCCN(CCCCCCCC(=O)OC(CCCCCCCC)CCCCCCCC)CCCN/C(=C/[N+](=O)[O-])NC | No |
| CCCCCCCCC(CCC)OC(=O)CCCCCCCN(CCO)CCCCCCCC(=O)OC(CCCCCCCC)CCCCCCCC (stereo not drawn) | Yes |
| CCCCCCCCCN(CCCO)CCCCCCCC(=O)OC(CCCCCCCC)CCCCCCCC | No |
| CCCCCCCCCOC(=O)CCCCCCCN(CCO)CCCCCCCC(=O)N(CCCCCCCC)CCCCCCCC | No |
| CCCCCCCCCOC(=O)CCCCCCCN(CCCCCCCC(=O)OC(CCCCCCCC)CCCCCCCC)CCCNC(=S)NC | Yes |

Please determine if CCCCCCCCC(CCCCCCCC)OC(=O)CCCCCCCN(CCO)CCCC(=O)OC(CCCCCC)CCCCCCCC (stereo not drawn) is below 90 nm in terms of Size (nm).
Yes

Size (nm) strictly < 90 nm for this compound? "CCCCCCCCCOC(=O)CCCCCCCN(CCCCCCCC(=O)OC(CCCCCCCC)CCCCCCCC)CCCN/C(=N/S(C)(=O)=O)N(C)C"
Yes

Hello, I'm reviewing records and need to know if Size (nm) of CCCCCCCCCOC(=O)CCCCCCCN(CCCCCCCC(=O)OC(CCCCCCCC)CCCCCCCC)C(C)CO (stereo not drawn) is below 90 nm. Could you check?
Yes

Size (nm) under 90 nm? Item: "CCCCCCCC/C=C\COC(=O)CCCCCN(CCO)CCCCCC(=O)OC/C=C\CCCCCCCC"
No

API: query returns whether the compound falls strictly under 90 nm in Size (nm). Query: "CCCCCCCCCN(CCCCCCCC(=O)OC(CCCCCCCC)CCCCCCCC)CCCn1ccnc1"
No

Identify whether the compound CCCCCCCCC(CCCCCCCC)C(=O)OCCCCCCCN(CCO)C(C)CCCCCCCCOC(=O)CCCCCCC (stereo not drawn) records Size (nm) below 90 nm.
Yes

====

tested on: hEPO mRNA; experiment: hEPO expression after intravenous administration to rats; assay type: in vivo, rat; details: rats, intravenous, 2 mpk, 6 hours
measure name: Lipid/MC3 hEPO conc. ratio 2 mpk
One number for each entry.

Dear reader, for each entry below, please note its Lipid/MC3 hEPO conc. ratio 2 mpk.
1. CCCCC/C=C\C/C=C\CCCCCCCCC(CCCCCCCC/C=C\C/C=C\CCCCC)OC(=O)CCCN(C)C [MC3, DLin-MC3-DMA, reference compound]
2. CCCCCCCCCOC(=O)CCCN(CCO)CCCCCCCC(=O)OC(CCCCCCCC)CCCCCCCC [Compound 26]
3. CCCCCCCCCN(CCO)CCCCCCCC(=O)OC(CCCCCCCC)CCCCCCCC [Compound 3]
4. CCCCCCCCCCCOC(=O)CCCCCN(CCO)CCCCCCCC(=O)OC(CCCCCCCC)CCCCCCCC [Compound 25]

1. 1
2. 4.95
3. 1.21
4. 2.13

====

experiment: Encapsulation efficiency of RNA (QUANT-IT RIBOGREEN RNA assay); type: physicochemical; details: Table 1B; formulated with hEPO mRNA
measure name: EE (%)
Numbers only, in %.

Please look at the items below and tell me EE (%) for each one, in order.
1. CCCCCCCCCOC(=O)CCCCCCCN(CCCCCCCC(=O)OC(CCCCCCCC)CCCCCCCC)CCCC(N)=O
2. CCCCCCCCC(CCCCCCCC)OC(=O)CCCCCCCN(CCO)CCCCCCCC(=O)OCC(C)CCCCCCC (stereo not shown)
3. CCCCCCCCCOC(=O)CCCCCCCN(CCO)CCCCCCC(C)OC(=O)C(CCCCCCCC)CCCCCCCC (stereo not shown)

1: 99.4; 2: 96.5; 3: 94.7

Note down EE (%) recorded for "CCCCCCCCCCCOC(=O)CCCCCN(CCO)CCCCCCCC(=O)OC(CCCCCCCC)CCCCCCCC"
97.92

====

Could you please report measured % dose remaining Rat liver tissue, 48 h for the items listed next?
test: Residual lipid levels in rat liver and spleen (UPLC-MS); format: in vivo; conditions: Sprague Dawley rat liver 48 h after 2 mg/kg bolus dose mRNA
Marks after values point to notes of the source that are not given here.

Below: 3 compounds and their reported % dose remaining Rat liver tissue, 48 h.
| compound | observed measurement |
| --- | --- |
| CCCCCCCCCOC(=O)CCCCCCCN(CCO)CCCCCCCC(=O)OC(CCCCCCCC)CCCCCCCC | 0.02^e % |
| CCCCCCCCCCCOC(=O)CCCCCN(CCO)CCCCCCCC(=O)OC(CCCCCCCC)CCCCCCCC | 1.3^e % |
| CCCCC/C=C\C/C=C\CCCCCCCCC(CCCCCCCC/C=C\C/C=C\CCCCC)OC(=O)CCCN(C)C [MC3, DLin-MC3-DMA, reference compound] | 61^e % |

Proceed to the following item.
Return the recorded % dose remaining Rat liver tissue, 48 h value; entry: "CCCCCCCCCOC(=O)CCCN(CCO)CCCCCCCC(=O)OC(CCCCCCCC)CCCCCCCC"
20 ± 4.0^f %

====

I'd appreciate it if you could supply Size (nm) values for the items below.
experiment: Particle size and polydispersity index of nanoparticle compositions (Zetasizer Nano ZS); type: physicochemical; details: Table 1B; formulated with hEPO mRNA
Give bare numbers, in nm.

| compound | reading unit | Size (nm) |
| --- | --- | --- |
| CCCCCCCCC(CCCCCCCC)OC(=O)CCCCCCCN(CCO)CCCCCCCC(=O)OCC(C)CCCCCCC (stereo not shown) [Compound 184] | nm | 85.8 |

Report Size (nm) for every entry below.
1. CCCCCCCCCOC(=O)CCCCCCCN(CCCCCCCC(=O)OC(CCCCCCCC)CCCCCCCC)CCCC(N)=O [Compound 243]
2. CCCCCCCCCOC(=O)CCCCCCCN(CCCCCCCC(=O)OC(CCCCCCCC)CCCCCCCC)CCCN/C(=N/S(C)(=O)=O)N(C)C [Compound 233]
3. CCCCCCCCCOC(=O)CCCCCCCN(CCCCCCCC(=O)OC(CCCCCCCC)CCCCCCCC)CCCN/C(=N/[N+](=O)[O-])NC [Compound 200]

1. 90.6
2. 93.7
3. 95.3

Hi there! I need Size (nm) for each item below, if you can.
1. CCCCCCCCCOC(=O)CCCCCCCN(CCCCCCCC(=O)OC(CCCCCCCC)CCCCCCCC)CCCNC(C)=O [Compound 108]
2. CCCCCCCCCOC(=O)CCCCCCCN(CCO)CCCCCC(=O)OC1CCC(CCCCC)CC1 (stereo not shown) [Compound 232]
3. CCCCCCCCCOC(=O)CCCCCCCN(CCO)CCCCCCC(C)OC(=O)C(CCCCCCCC)CCCCCCCC (stereo not shown) [Compound 234]

[89.6, 150.3, 96.3]
